Reference for the values: paper PMC8593400

TEST_METHOD_NOTES: cytotoxicity, CellTiter-Glo 3D cell viability assay
Type: cell-based
CONDITION_INFO: African green monkey, Vero cells, 10 μM, Vero cells, 48 h; read-out: Cell viability (%)
ENDPOINT: viability at 48 h, 10 µM (%)
Numbers only; they are read as %.

Lab note: measured viability at 48 h, 10 µM of Nc1nc2c(ncn2COCCO)c(=O)[nH]1 [acyclovir, reference compound] was 103

---

Tested on: HSV-1 (HF strain: acyclovir-sensitive)
TEST_METHOD_NOTES: plaque reduction assay on Vero cells (anti-HSV-1 activity)
Type: cell-based, herpes simplex virus type 1
CONDITION_INFO: Human alphaherpesvirus 1, Vero, 48 h, 5 μM; plaque number vs untreated control; Vero cells, 48 h; read-out: Inhibitory rate (%) 5 μM
List of inhibition at 5 µM values.
Numbers only; they are read as %.

Solved entries:
COMPOUND	inhibition at 5 µM, %
CC1(C)CCC2(C(=O)O)CCC3(C)C(=CCC4C5(C)CCC(OC6OC(C(=O)O)C(O)C(O)C6O)C(C)(C)C5CCC43C)C2C1 (stereo not shown) [Compound 10]	5.85
CC1(C)CC[C@]2(C(=O)O)CC[C@]3(C)C(=CC[C@@H]4[C@@]5(C)CC[C@H](O)C(C)(C)[C@@H]5CC[C@]43C)[C@@H]2C1 [oleanolic acid, reference compound]	9.02
CC(C)C(C)CCC(C)C1CCC2C1(C)CCC1C23C=CC2(CC(O)CCC12C)OO3 (stereo not drawn) [Compound 16, 5α,8α-epidioxyergosta-3β-ol]	-2.49

Okay, next one:
Item C=C1CCC2(C(=O)OC3OC(CO)C(O)C(O)C3O)CCC3(C)C(=CCC4C5(C)CCC(OC6OC(C(=O)O)C(O)C(O)C6O)C(C)(C)C5CCC43C)C2C1 (stereo not shown) [Compound 12, boussingoside A2] ; assay system HSV-1 (HF strain: acyclovir-sensitive); inhibition at 5 µM reported as 4.42

---

TEST_METHOD_NOTES: cytotoxicity, CellTiter-Glo 3D cell viability assay
Type: cell-based
CONDITION_INFO: African green monkey, Cell viability (%)
ENDPOINT: viability at 48 h, 10 µM (%)
Numbers only; they are read as %.

Lab note: measured viability at 48 h, 10 µM of CC1(C)CCC2(C(=O)O)CCC3(C)C(=CCC4C5(C)CCC(OC6OC(C(=O)O)C(O)C(O)C6O)C(C)(C)C5CCC43C)C2C1 (stereo not shown) was 104
